Assayed system: Poly [ADP-ribose] polymerase 1 (Homo sapiens)
Sequence (P09874 whole entry, the tested form may be a part): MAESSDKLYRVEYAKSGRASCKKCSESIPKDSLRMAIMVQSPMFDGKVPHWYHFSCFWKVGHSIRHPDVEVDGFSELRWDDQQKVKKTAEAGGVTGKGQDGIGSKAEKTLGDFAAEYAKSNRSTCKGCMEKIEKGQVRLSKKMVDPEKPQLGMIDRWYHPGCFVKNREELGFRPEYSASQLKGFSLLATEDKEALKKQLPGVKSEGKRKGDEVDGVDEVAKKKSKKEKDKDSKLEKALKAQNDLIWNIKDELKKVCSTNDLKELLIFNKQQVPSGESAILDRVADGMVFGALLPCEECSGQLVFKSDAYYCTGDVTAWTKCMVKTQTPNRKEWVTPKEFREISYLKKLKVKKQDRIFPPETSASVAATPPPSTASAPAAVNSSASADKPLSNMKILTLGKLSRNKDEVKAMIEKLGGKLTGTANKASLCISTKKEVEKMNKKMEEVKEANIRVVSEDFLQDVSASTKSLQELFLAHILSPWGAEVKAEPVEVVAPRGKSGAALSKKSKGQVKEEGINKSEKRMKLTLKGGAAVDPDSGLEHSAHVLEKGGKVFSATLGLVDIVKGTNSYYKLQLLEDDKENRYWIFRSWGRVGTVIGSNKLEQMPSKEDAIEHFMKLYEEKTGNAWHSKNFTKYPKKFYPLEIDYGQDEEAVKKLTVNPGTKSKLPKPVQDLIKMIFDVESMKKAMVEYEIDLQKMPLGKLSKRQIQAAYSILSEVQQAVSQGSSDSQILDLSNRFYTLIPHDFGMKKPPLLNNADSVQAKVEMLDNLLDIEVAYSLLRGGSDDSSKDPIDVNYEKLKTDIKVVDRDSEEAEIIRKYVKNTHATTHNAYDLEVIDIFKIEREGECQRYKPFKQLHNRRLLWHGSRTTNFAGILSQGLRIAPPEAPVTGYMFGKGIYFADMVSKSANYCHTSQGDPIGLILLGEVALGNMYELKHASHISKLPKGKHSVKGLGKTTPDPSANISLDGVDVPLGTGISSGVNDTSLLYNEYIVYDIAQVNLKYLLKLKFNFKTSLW
Assay notes: Inhibition of N-terminal GST-tagged full length human PARP1 (2 to 1014 residues) expressed in baculovirus-infected Sf9 cells using histone as substrate incubated for 60 mins in presence of activated DNA, NAD+, NAD+-biotin by luminescence based analysis
pIC50: −log10 of the molar value.
Measurement name: pIC50

| Record smiles | Assayed system | pIC50 |
| --- | --- | --- |
| O=C(c1cc(CC2=NNB(O)c3ccccc32)ccc1F)N1CCN(C(=O)C2CC2)CC1 | Poly [ADP-ribose] polymerase 1 (Homo sapiens) | ~6.27 |

Now, please, on to the next compound.
Request: Any idea what pIC50 was measured for "O=C(c1cc(CC2=NOB(O)c3ccccc32)ccc1F)N1CCN(C(=O)C2CC2)CC1" ?
Response: < 6.00

---

Assay notes: Dissociation constant, pKa of the compound in aqueous phosphate buffer with 3 to 4% DMSO
Type: physicochemical
Measurement name: pKa
Give bare numbers.

Below: 2 compounds and their reported pKa.
| Compound | Value reported |
| --- | --- |
| OB1ON=Cc2ccccc21 | 5.5 |
| OB1OCc2ccccc21 [BENZOXABOROLE] | 7.4 |

Now, please, on to the next compound.
Request: Any idea what pKa was measured for OB1OCc2cc(F)ccc21 [TAVABOROLE] ?
Response: 7.4

---

Assay notes: Efflux ratio of permeability across basolateral to apical membrane over apical to basolateral membrane in human Caco-2 cells at 10 uM measured for 90 mins by LC-MS/MS analysis
Type: ADME, cell-based
Measurement name: efflux ratio at 1.5 h, 10 µM
One number for each entry.

| Record smiles | efflux ratio at 1.5 h, 10 µM |
| --- | --- |
| OB1ON=C(c2ccccc2)c2ccccc21 | 0.12 |

Items follow; give efflux ratio at 1.5 h, 10 µM for each.
1. OB1NN=Cc2ccccc21
2. C[C@H]1O[C@@H](O[C@H]2[C@@H](O)C[C@H](O[C@H]3[C@@H](O)C[C@H](O[C@H]4CC[C@@]5(C)[C@H](CC[C@@H]6[C@@H]5C[C@@H](O)[C@]5(C)[C@@H](C7=CC(=O)OC7)CC[C@]65O)C4)O[C@@H]3C)O[C@@H]2C)C[C@H](O)[C@@H]1O
3. OB1NN=C(c2ccccc2)c2ccccc21
4. OB1ON=Cc2ccccc21

Response:
1
13.4
0.82
0.13

---

Assay notes: Clearance in human hepatocytes at 1 uM measured per million cells by LC-MS/MS analysis
Type: ADME, cell-based, Hepatocyte
Reported conditions: read-out: CLH
Provide the recorded hepatocyte CLint at 1 µM for the entries that follow.
Numbers only, in µL/min/1e6 cells.

Below: 2 molecules and their reported hepatocyte CLint at 1 µM.
| Molecule | hepatocyte CLint at 1 µM, µL/min/1e6 cells |
| --- | --- |
| C[C@]12CC[C@H]3[C@@H](CCC4=CC(=O)CC[C@@]43C)[C@@H]1CC[C@@H]2O [TESTOSTERONE] | 60.2 |
| OB1NN=C(c2ccccc2)c2ccccc21 | 12.8 |

Request: Any idea what hepatocyte CLint at 1 µM was measured for "OB1ON=Cc2ccccc21" ?
Response: 29.7

---

Assay notes: Permeability of the compound across basolateral to apical membrane in human Caco-2 cells at 10 uM measured for 90 mins by LC-MS/MS analysis
Type: ADME, cell-based
Measurement name: Papp B→A at 1.5 h, 10 µM (×10⁻⁶ cm/s)
One number for each entry, in ×10⁻⁶ cm/s.

Items follow; give Papp B→A at 1.5 h, 10 µM for each.
1. OB1ON=C(c2ccccc2)c2ccccc21
2. OB1NN=Cc2ccccc21
3. C[C@H]1O[C@@H](O[C@H]2[C@@H](O)C[C@H](O[C@H]3[C@@H](O)C[C@H](O[C@H]4CC[C@@]5(C)[C@H](CC[C@@H]6[C@@H]5C[C@@H](O)[C@]5(C)[C@@H](C7=CC(=O)OC7)CC[C@]65O)C4)O[C@@H]3C)O[C@@H]2C)C[C@H](O)[C@@H]1O
4. OB1NN=C(c2ccccc2)c2ccccc21
5. OB1ON=Cc2ccccc21

Response:
1. 4
2. 30.6
3. 13.1
4. 22.1
5. 4.4
